In this section, each of the compounds is paired with its reported MIC.
# Tested on: Mycobacterium tuberculosis
# Assay procedure: Antimycobacterial activity against rifampicin-resistant Mycobacterium tuberculosis
# Type: functional

Compound | Result
CCCc1ccc(-c2cc(CN3CCSCC3)c(C)n2-c2ccc(Cl)cc2)cc1 | 0.125 µg/mL

Give its MIC value. Item: Cc1ccc(-c2cc(CN3CCSCC3)c(C)n2-c2ccc(F)cc2)cc1 0.5 µg/mL

Would you kindly repeat that for Cc1ccc(-c2cc(CN3CCSCC3)c(C)n2-c2ccc(Cl)cc2)cc1 ? 0.5 µg/mL

Would you kindly repeat that for CCc1ccc(-c2cc(CN3CCSCC3)c(C)n2-c2ccc(Cl)cc2)cc1 ? 0.25 µg/mL

Would you kindly repeat that for Cc1c(CN2CCSCC2)cc(-c2ccc(C(C)C)cc2)n1-c1ccc(Cl)cc1 ? 0.125 µg/mL

Would you kindly repeat that for CO[C@H]1/C=C/O[C@@]2(C)Oc3c(C)c(O)c4c(O)c(c(/C=N/N5CCN(C)CC5)c(O)c4c3C2=O)NC(=O)/C(C)=C\C=C\[C@H](C)[C@H](O)[C@@H](C)[C@@H](O)[C@@H](C)[C@H](OC(C)=O)[C@@H]1C [RIFAMPIN] ? > 64 µg/mL

---

# Test system: Mycobacterium tuberculosis
# Assay procedure: Antimycobacterial activity against rifampicin-resistant Mycobacterium tuberculosis
# Format: functional
In this section, each of the compounds is paired with its reported MIC.
The reply should contain only the number, in µg/mL.

Sample records with MIC:
Compound | Quantity unit | MIC
Cc1c(CN2CCN(C)CC2)cc(-c2ccc(Cl)cc2)n1-c1ccc(Cl)cc1 | µg/mL | 1
Cc1c(CN2CCSCC2)cc(-c2ccc(C(C)C)cc2)n1-c1ccc(F)cc1 | µg/mL | 0.25
[H]/N=C(/N)N[C@H]1[C@H](O)[C@@H](O)[C@H](O[C@@H]2O[C@@H](C)[C@](O)(C=O)[C@H]2O[C@@H]2O[C@@H](CO)[C@H](O)[C@@H](O)[C@@H]2NC)[C@@H](N/C(N)=N\[H])[C@@H]1O (stereo in doubt) [STREPTOMYCIN] | µg/mL | 4

Hi! What's the reported MIC for Cc1c(CN2CCSCC2)cc(-c2ccc(Cl)cc2)n1-c1ccc(C(C)C)cc1 on Mycobacterium tuberculosis? 0.25

Would you kindly repeat that for CCc1ccc(-n2c(-c3ccc(Cl)cc3)cc(CN3CCSCC3)c2C)cc1 ? 0.5

Would you kindly repeat that for CCCc1ccc(-n2c(-c3ccc(Cl)cc3)cc(CN3CCSCC3)c2C)cc1 ? 0.25

Would you kindly repeat that for NNC(=O)c1ccncc1 [ISONIAZID] ? 0.25

Would you kindly repeat that for Cc1ccc(-n2c(-c3ccc(Cl)cc3)cc(CN3CCSCC3)c2C)cc1 ? 0.5
